Cited source for all entries: patent US20240316051A1

Answer each item with its documented IC50.
# System Name: EED (1-441)-His protein (Homo sapiens, UniProt O75530)
# Construct: 20 nM EED (1-441)-His protein
# Sequence (O75530 whole entry): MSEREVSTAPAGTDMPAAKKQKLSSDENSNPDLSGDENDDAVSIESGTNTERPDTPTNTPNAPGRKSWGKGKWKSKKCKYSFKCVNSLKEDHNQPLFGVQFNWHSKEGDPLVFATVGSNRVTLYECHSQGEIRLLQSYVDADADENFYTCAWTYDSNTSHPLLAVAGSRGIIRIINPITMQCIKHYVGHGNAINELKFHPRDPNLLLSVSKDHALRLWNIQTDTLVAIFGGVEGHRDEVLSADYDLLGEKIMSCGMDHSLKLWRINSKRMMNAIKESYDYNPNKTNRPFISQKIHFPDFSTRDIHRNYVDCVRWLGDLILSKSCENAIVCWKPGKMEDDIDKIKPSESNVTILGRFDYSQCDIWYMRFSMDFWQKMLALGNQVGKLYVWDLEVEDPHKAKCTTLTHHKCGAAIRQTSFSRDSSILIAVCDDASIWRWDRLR
# Assay Protocol: EED-H3K27Me3 peptide competition binding assay by AlphaScreen
# Reported Conditions: IC50 class, Table 4B, read-out: Alpha screen

# lookup: IC50 of Cc1cnc2n1Cc1cc(C(F)(F)F)ncc1-c1cnc(NCc3c(F)ccc4c3CCO4)n3cnc-2c13
< 10 nM

Now this one: CCc1cnc2n1Cc1cc(C(F)(F)F)ncc1-c1cnc(NCc3c(F)ccc4c3CCO4)n3cnc-2c13
10 to 100 nM

Now this one: [2H]C([2H])(Nc1ncc2c3c(ncn13)C(=O)N(CC(F)(F)F)Cc1cc(C(=O)N(C)C)ccc1-2)c1c(F)ccc2c1CCO2
10 to 100 nM

Now this one: Cc1cc2c(cn1)-c1cnc(NCc3c(F)ccc4c3CCO4)n3cnc(c13)C(=O)N(C(C)C)C2
< 10 nM

Now this one: CCc1ccc2c(n1)CN(CC(F)F)C(=O)c1ncn3c(NCc4c(F)ccc5c4CCO5)ncc-2c13
< 10 nM

Now this one: O=C1c2ncn3c(NCc4c(F)ccc5c4CCO5)ncc(c23)-c2ccc(C3CCC3)nc2CN1CC(F)(F)F
< 10 nM

Now this one: O=C1NCCc2ccccc2-c2cnc(NCc3c(F)ccc4c3CCO4)n3cnc1c23
10 to 100 nM

Now this one: CC(C)N1Cc2cc(C(F)F)ncc2-c2cnc(NCc3c(F)ccc4c3CCO4)n3cnc(c23)C1=O
< 10 nM

====

Answer each item with its documented IC50.
# System Name: EED (1-441)-His protein (Homo sapiens, UniProt O75530)
# Construct: 20 nM EED (1-441)-His protein
# Assay Protocol: EED-H3K27Me3 peptide competition binding assay by AlphaScreen
# Reported Conditions: Table 4A, read-out: Alpha screen
Units required after the number.

# lookup: IC50 of O=C1NCc2ccc(F)cc2-c2cnc(NCc3c(F)ccc4c3CCO4)n3cnc1c23
1.18 nM

Now this one: O=C1NCc2cc(C(F)(F)F)ccc2-c2cnc(NCc3c(F)ccc4c3CCO4)n3cnc1c23
1.13 nM

Now this one: COCCN1Cc2nc(C(F)(F)F)ccc2-c2cnc(NCc3c(F)ccc4c3CCO4)n3cnc(c23)C1=O
4.2 nM

Now this one: O=C1c2ncn3c(NCc4c(F)ccc5c4CCO5)ncc(c23)-c2ccc(C(F)(F)F)cc2CN1CCF
1.19 nM

Now this one: CC(F)(F)CN1Cc2cc(F)ccc2-c2cnc(NCc3c(F)ccc4c3CCO4)n3cnc(c23)C1=O
0.97 nM

Now this one: Cc1ccc2c(n1)COC(=O)c1ncn3c(NCc4c(F)ccc5c4CCO5)ncc-2c13
0.7 nM

Now this one: CC(C)N1Cc2cc(C(F)(F)F)ncc2-c2cnc(NCc3c(F)ccc4c3CCO4)n3cnc(c23)C1=O
0.5 nM

Now this one: O=C1c2ncn3c(NCc4c(F)ccc5c4CCO5)ncc(c23)-c2cnc(C(F)(F)F)cc2CN1CC1COCCO1 (centres unmarked)
0.94 nM

====

# System Name: EED (1-441)-His protein (Homo sapiens, UniProt O75530)
# Construct: 20 nM EED (1-441)-His protein
# Assay Protocol: EED-H3K27Me3 peptide competition binding assay by AlphaScreen
# Reported Conditions: Table 4A, read-out: Alpha screen
Property Name: IC50 (nM)
Field: numeric (nM). Do not append units.

# lookup: IC50 of Cc1ccc2c(n1)CN(CC1CC(C)(O)C1)C(=O)c1ncn3c(NCc4c(F)ccc5c4CCO5)ncc-2c13 (centres unmarked) [Compound 50]
1.16

Now this one: O=C1OCc2ccc(C(F)(F)F)cc2-c2cnc(NCc3c(F)ccc4c3CCO4)n3cnc1c23 [Compound 24]
4.75

Now this one: O=C1Nc2ccccc2-c2cnc(NCc3c(F)ccc4c3CCO4)n3cnc1c23 [Compound 3]
6.88

Now this one: O=C1c2ncn3c(NCc4c(F)ccc5c4CCO5)ncc(c23)-c2cnc(C(F)(F)F)cc2CN1CC(F)(F)F [Compound 84]
3.07

Now this one: O=C1c2ncn3c(NCc4c(F)ccc5c4CCO5)ncc(c23)-c2ccc(C(F)(F)F)cc2CN1C1CC1 [Compound 67]
2.87

Now this one: O=C1NCc2ncccc2-c2cnc(NCc3c(F)ccc4c3CCO4)n3cnc1c23 [Compound 16]
0.7

Now this one: O=C1c2ncn3c(NCc4c(F)ccc5c4CCO5)ncc(c23)-c2ccc(C(F)(F)F)nc2CN1CC1CC1 [Compound 55]
2.14

Now this one: O=C1NCc2c(F)cccc2-c2cnc(NCc3c(F)ccc4c3CCO4)n3cnc1c23 [Compound 20]
0.61
